# Protocol Notes: AUC (0 to last) in healthy human plasma at 200 mg, po once daily for 3 days measured after 1 day
# Type: ADME, organism-based
# Design: dose 200 mg, time 0 - last, route oral
Measured Property: AUC(0-t) at 24 h

What AUC(0-t) at 24 h value was documented for this molecule, CC[C@H]1OC(=O)[C@H](C)C(=O)[C@H](C)[C@@H](O[C@@H]2O[C@H](C)C[C@H](N(C)C)[C@H]2O)[C@@]2(C)C[C@@H](C)/C(=N\C(C)=O)[C@H](C)[C@@H](OC/C(=N\OCc3ccc(-n4cccn4)nc3)CO2)[C@]1(C)O [MODITHROMYCIN] ?
6200 ng·h/mL
